biological target: AMP-activated protein kinase, AMPK (Homo sapiens) (UniProt P54646+O43741+P54619+Q9UGJ0+Q9Y478+Q13131+Q9UGI9); assay: AMP-dependent Kinase enzyme assay. An in vitro enzyme assay that detects ADP turnover that is directly proportional to AMPK activity. This uses naive AMPK that is activated during the assay with MK-8722; type: functional; design: scale not given: direction of the effect not stated beside the values; conditions: 30 µM
measure: Percent Effect (%)
Kindly answer with a numeric value in %, unit omitted.

Memo: "CC(C)NC(=O)N1CCc2nc(C(=O)NCc3ccccc3)sc2CC1" , reported Percent Effect: 5.95

Lab book: Percent Effect of "Cc1ccc2c(ccn2CC(=O)NC[C@@H]2CCCN3CCCC[C@H]23)c1" noted as -5.58

Percent Effect for "Cn1cc(CCNC(=O)NCc2nnc3n2CCC3)cn1" is -4.15

Others:
Summary for this molecule, "N#Cc1cccnc1NCCNC(=O)N1CCCSCC1" : Percent Effect is -4.19

Briefly, Percent Effect measured for Fc1ccc(CN2CCCC(c3nnc(-c4cnccn4)o3)C2)cc1F (configuration not stated) : -1.12

For reference, reported Percent Effect for "NS(=O)(=O)CCNC(=O)c1nnn(-c2ccccc2)c1C1CC1" stands at 0.144

# molecule "COc1cccn(CC(=O)N(C)Cc2ccoc2)c1=O" ; its Percent Effect = -5.18

In plain terms, CC(CNC(=O)N1CCSCC1)Cc1cccs1 (configuration not stated) has a documented Percent Effect of 0.113

Per the record, O=C(NCc1ccccc1)N1CCC2(CC(=O)N(c3ccsc3)C2)C1 (configuration not stated) has Percent Effect of 3.29
